# Assay notes: in vitro
# Format: cell-based, human
# Condition description: human
Parameter: GI50 at 24 h
State the result as a value with its unit after it.

Exercise: Please report the measured GI50 at 24 h for `Cc1cccc(Nc2nc3nonc3nc2Nc2cccc(C)c2)c1`
Key: 15 µg/mL

====

# System: HeLa cells
# Assay notes: in vitro
# Type: cell-based, human
# Method: These 10 compounds were tested for their MICs and minimum re-sensitizing concentrations (MRCs) in the presence colistin at 2 μg/mL in E. coli AR-0493. […] To evaluate the mammalian toxicity of these analogs, Applicants tested them in cell viability assay using human cervical adenocarcinoma HeLa cells. Their respective half maximal growth inhibition concentration (GI50) was calculated using KaleidaGraph. […] Their mammalian toxicities were also evaluated, and SIs calculated. […]
Classes based on GI50: lower segment: < 3 µg/mL; middle segment: ≥ 3 µg/mL and < 10 µg/mL; upper segment: ≥ 10 µg/mL

Answered examples (5):
Exercise: Dear colleague, I would appreciate it if you could identify the bin for `Fc1ccc(Nc2nc3nonc3nc2Nc2ccc(F)cc2)cc1` and reply at your convenience.
Key: middle segment

Exercise: Dear colleague, I would appreciate it if you could identify the bin for `Clc1cccc(Nc2nc3nonc3nc2Nc2cccc(Cl)c2)c1` and reply at your convenience.
Key: lower segment

Exercise: Dear colleague, I would appreciate it if you could identify the bin for `Oc1nc2nonc2nc1Nc1cccc(OC(F)(F)F)c1` and reply at your convenience.
Key: upper segment

Exercise: Dear colleague, I would appreciate it if you could identify the bin for `Cc1cccc(Nc2nc3nonc3nc2Nc2cccc(OC(F)(F)F)c2)c1` and reply at your convenience.
Key: upper segment

Exercise: Dear colleague, I would appreciate it if you could identify the bin for `FC(F)(F)Oc1ccc(Nc2nc3nonc3nc2Nc2ccc(OC(F)(F)F)cc2)cc1` and reply at your convenience.
Key: middle segment

Next item in the queue.
Exercise: Dear colleague, I would appreciate it if you could identify the bin for `Cc1ccc(Nc2nc3nonc3nc2Nc2ccc(C)cc2)cc1` and reply at your convenience.
Key: lower segment

====

# Tested on: HeLa cells
# Assay notes: in vitro
# Assay type: cell-based, human
GI50 listing for selected compounds.
Write the answer as a number in µg/mL, unit excluded.

Field: example entries. Status: answers known.
Exercise: Please report the measured GI50 for `Cc1cccc(Nc2nc3nonc3nc2Nc2cccc(C)c2)c1`
Key: 1.5

Exercise: Please report the measured GI50 for `c1ccc(Nc2nc3nonc3nc2Nc2ccccc2)cc1`
Key: 4.4

Exercise: Please report the measured GI50 for `FC(F)(F)Oc1cccc(Nc2nc3nonc3nc2Nc2cccc(OC(F)(F)F)c2)c1`
Key: 43

Exercise: Please report the measured GI50 for `Clc1ccc(Nc2nc3nonc3nc2Nc2ccc(Cl)cc2)cc1`
Key: 2.8

Now examine the next entry.
Exercise: Please report the measured GI50 for `Fc1cccc(Nc2nc3nonc3nc2Nc2cccc(F)c2)c1`
Key: 20
